system: T1, human 5T4-His protein (human, UniProt Q13641 32-355)
T1 construct: also called recombinant 5T4 protein (human 5T4-his tag); human 5T4 protein; not shown: His tag
T1 sequence (looked up): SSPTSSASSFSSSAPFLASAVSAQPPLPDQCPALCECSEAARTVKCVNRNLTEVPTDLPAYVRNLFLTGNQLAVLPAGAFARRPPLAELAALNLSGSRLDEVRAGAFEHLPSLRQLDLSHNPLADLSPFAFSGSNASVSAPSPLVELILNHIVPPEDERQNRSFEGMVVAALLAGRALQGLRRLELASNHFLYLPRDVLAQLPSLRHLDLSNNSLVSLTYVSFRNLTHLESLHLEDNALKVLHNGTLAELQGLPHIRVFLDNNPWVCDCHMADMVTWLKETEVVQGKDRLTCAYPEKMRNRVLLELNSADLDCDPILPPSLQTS
assay.summary: SPR Biacore, Protein A capture
outcome.measure: kon

binder	observed
Hu14G12-6 (antibody, V domains shown, humanized) VH: EVQLVQSGAEVKKPGATVKISCKVSGYAFSSSWMNWVQQAPGKGLEWIGRIYREDGHTNYNGKFKGRVTITADTSTDTAYMELSSLRSEDTAVYFCANGGAMDYWGQGTLVTVSS VL: DIQMTQSPSSLSASVGDRVTITCRASQDISNYLNWYQQKPGKAPKLLIYYTSRLHSGVPSRFSGSGSGTDYTFTISSLQPEDIATYFCQQDNTLPWTFGGGTKLEIK	288000 M⁻¹ s⁻¹
Hu14G12-11 (antibody, V domains shown, humanized) VH: EVQLVQSGAEVKKPGATVKISCKVSGYAFSSSWMNWVKQAPGKGLEWIGRIYREDGHTNYNGKFKGRATITADTSTTTAYMELSSLRSEDTAVYFCANGGAMDYWGQGTLVTVSS VL: DIQMTQSPSSLSASVGDRVTISCRASQDISNYLNWYQQKPGKAVKLLIYYTSRLHSGVPSRFSGSGSGTDFTFTISSLQPEDIATYFCQQDNTLPWTFGGGTKLEIK	241000 M⁻¹ s⁻¹
Hu14G12-44 (antibody, V domains shown, humanized) VH: QVQLVQSGAEVKKPGASVKVSCKASGYAFSSSWMNWVRQAPGQGLEWMGRIYREDGHTNYNGKFKGRVTMTADKSTTTAYMELRSLRSDDTAVYYCANGGAMDYWGQGTLVTVSS VL: DIQMTQSPSSLSASVGDRVTITCRASQDISNYLNWYQQKPGKAPKLLIYYTSRLHSGVPSRFSGSGSGTDYTLTISSLQPEDIATYFCQQDNTLPWTFGGGTKVEIK	1.4e+06 M⁻¹ s⁻¹
